Reference source for all entries: ChEMBL document CHEMBL1157144

MIC listing for selected compounds.
System: Staphylococcus aureus
measurement-protocol: Antibacterial activity against susceptible Staphylococcus aureus after 20 hrs by agar dilution method
Assay type: functional
Write down the numeric answer in µg/mL and omit the unit.

{"columns": ["smiles-repr", "unit-of-measure", "MIC"],
 "data": [
  ["CCC(=O)O[C@@H]1CC(=O)O[C@H](C)C[C@@H]2OC(=O)N(CCCc3ccccc3)[C@@H]2/C=C/[C@H](OC(C)=O)[C@H](C)C[C@H](CC=O)[C@H](O[C@@H]2O[C@H](C)[C@@H](O[C@H]3C[C@@](C)(O)[C@@H](OC(=O)CC)[C@H](C)O3)[C@H](N(C)C)[C@H]2O)[C@H]1OC", "µg/mL", 0.78]
]}

Would you kindly look at the next entry?
Endpoint output: MIC of CCC(=O)O[C@@H]1CC(=O)O[C@H](C)C[C@H](O)[C@H](N(C)CCCc2cccc3ccccc23)/C=C/[C@H](OC(C)=O)[C@H](C)C[C@H](CC=O)[C@H](O[C@@H]2O[C@H](C)[C@@H](O[C@H]3C[C@@](C)(O)[C@@H](OC(=O)CC)[C@H](C)O3)[C@H](N(C)C)[C@H]2O)[C@H]1OC . Value?
0.39

====

System: Streptococcus pneumoniae
measurement-protocol: Antibacterial activity against ermB-inducible resistant Streptococcus pneumoniae after 20 hrs by agar dilution method
Type: functional
measured-metric: log10(MIC) (log10 of the value in µg/mL)
In our notation, the value equals log10 of MIC in µg/mL.

{"columns": ["smiles-repr", "target-or-test-system", "log10(MIC)"],
 "data": [
  ["CCC(=O)O[C@@H]1CC(=O)O[C@H](C)C/C=C/C=C/[C@H](OC(C)=O)[C@H](C)C[C@H](CC=O)[C@H](O[C@@H]2O[C@H](C)[C@@H](O[C@H]3C[C@@](C)(O)[C@@H](OC(=O)CC)[C@H](C)O3)[C@H](N(C)C)[C@H]2O)[C@H]1OC", "Streptococcus pneumoniae", 2.00],
  ["CCC(=O)O[C@@H]1CC(=O)O[C@H](C)C[C@H](O)[C@H](N(C)Cc2ccccc2)/C=C/[C@H](OC(C)=O)[C@H](C)C[C@H](CC=O)[C@H](O[C@@H]2O[C@H](C)[C@@H](O[C@H]3C[C@@](C)(O)[C@@H](OC(=O)CC)[C@H](C)O3)[C@H](N(C)C)[C@H]2O)[C@H]1OC", "Streptococcus pneumoniae", 2.00],
  ["CCC(=O)O[C@@H]1CC(=O)O[C@H](C)C[C@H](O)[C@H](N(C)CCCc2ccnc3ccccc23)/C=C/[C@H](OC(C)=O)[C@H](C)C[C@H](CC=O)[C@H](O[C@@H]2O[C@H](C)[C@@H](O)[C@H](N(C)C)[C@H]2O)[C@H]1OC", "Streptococcus pneumoniae", 1.10],
  ["CCC(=O)O[C@@H]1CC(=O)O[C@H](C)C[C@H](O)[C@H](N(C)CCCCCc2ccccc2)/C=C/[C@H](OC(C)=O)[C@H](C)C[C@H](CC=O)[C@H](O[C@@H]2O[C@H](C)[C@@H](O[C@H]3C[C@@](C)(O)[C@@H](OC(=O)CC)[C@H](C)O3)[C@H](N(C)C)[C@H]2O)[C@H]1OC", "Streptococcus pneumoniae", 1.10],
  ["CCC(=O)O[C@@H]1CC(=O)O[C@H](C)C[C@@H]2OC(=O)N(Cc3ccccc3)[C@@H]2/C=C/[C@H](OC(C)=O)[C@H](C)C[C@H](CC=O)[C@H](O[C@@H]2O[C@H](C)[C@@H](O[C@H]3C[C@@](C)(O)[C@@H](OC(=O)CC)[C@H](C)O3)[C@H](N(C)C)[C@H]2O)[C@H]1OC", "Streptococcus pneumoniae", 2.00]
]}

log10(MIC) lookup needed for CCC(=O)O[C@@H]1CC(=O)O[C@H](C)C[C@H](O)[C@H](N(C)CCCc2cccc3ccccc23)/C=C/[C@H](OC(C)=O)[C@H](C)C[C@H](CC=O)[C@H](O[C@@H]2O[C@H](C)[C@@H](O[C@H]3C[C@@](C)(O)[C@@H](OC(=O)CC)[C@H](C)O3)[C@H](N(C)C)[C@H]2O)[C@H]1OC , thanks.
0.80

Record: CCC(=O)O[C@@H]1CC(=O)O[C@H](C)C[C@H](O)[C@H](N(C)CCCn2cnc(-c3cccnc3)c2)/C=C/[C@H](OC(C)=O)[C@H](C)C[C@H](CC=O)[C@H](O[C@@H]2O[C@H](C)[C@@H](O[C@H]3C[C@@](C)(O)[C@@H](OC(=O)CC)[C@H](C)O3)[C@H](N(C)C)[C@H]2O)[C@H]1OC
2.00

What about this molecule? CCC(=O)O[C@@H]1CC(=O)O[C@H](C)C[C@H](O)[C@H](N(C)CCc2ccccc2)/C=C/[C@H](OC(C)=O)[C@H](C)C[C@H](CC=O)[C@H](O[C@@H]2O[C@H](C)[C@@H](O[C@H]3C[C@@](C)(O)[C@@H](OC(=O)CC)[C@H](C)O3)[C@H](N(C)C)[C@H]2O)[C@H]1OC
1.40

Try this molecule too: CCC(=O)O[C@@H]1CC(=O)O[C@H](C)C[C@H](O)[C@H](N(C)CCCc2ccccc2)/C=C/[C@H](OC(C)=O)[C@H](C)C[C@H](CC=O)[C@H](O[C@@H]2O[C@H](C)[C@@H](O[C@H]3C[C@@](C)(O)[C@@H](OC(=O)CC)[C@H](C)O3)[C@H](N(C)C)[C@H]2O)[C@H]1OC
1.10

Cool, now CCC(=O)O[C@@H]1CC(=O)O[C@H](C)C[C@H](O)[C@H](N(C)CCCc2ccnc3ccccc23)/C=C/[C@H](OC(C)=O)[C@H](C)C[C@H](CC=O)[C@H](O[C@@H]2O[C@H](C)[C@@H](O[C@H]3C[C@@](C)(O)[C@@H](OC(=O)CC)[C@H](C)O3)[C@H](N(C)C)[C@H]2O)[C@H]1OC
-0.11
